Entries with reported IC50 on Tyrosine-protein phosphatase non-receptor type 9 (Homo sapiens)
Sequence (P43378 whole entry): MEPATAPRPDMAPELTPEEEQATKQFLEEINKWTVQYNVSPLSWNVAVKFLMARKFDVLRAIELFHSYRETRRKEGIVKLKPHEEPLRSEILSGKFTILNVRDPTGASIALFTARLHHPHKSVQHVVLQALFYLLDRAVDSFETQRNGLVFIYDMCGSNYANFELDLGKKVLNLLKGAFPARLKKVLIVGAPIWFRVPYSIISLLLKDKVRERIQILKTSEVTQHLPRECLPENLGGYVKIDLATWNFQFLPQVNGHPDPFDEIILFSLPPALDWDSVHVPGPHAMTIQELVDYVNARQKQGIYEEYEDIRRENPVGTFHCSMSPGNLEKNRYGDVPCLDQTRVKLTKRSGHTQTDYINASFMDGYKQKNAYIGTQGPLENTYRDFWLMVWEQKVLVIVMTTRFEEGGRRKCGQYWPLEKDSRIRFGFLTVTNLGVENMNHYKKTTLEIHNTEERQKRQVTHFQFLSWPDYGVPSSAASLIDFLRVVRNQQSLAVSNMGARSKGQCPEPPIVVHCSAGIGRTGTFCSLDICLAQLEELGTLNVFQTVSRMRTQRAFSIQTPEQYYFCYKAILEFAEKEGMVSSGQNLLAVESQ
Property Label: IC50 (µM)

[
  {
    "Molecule": "CCOP(=O)(OCC)[C@H](Nc1ccc(Cl)cc1)c1ccccc1O",
    "Target System": "Tyrosine-protein phosphatase non-receptor type 9 (Homo sapiens)",
    "Readout Units": "µM",
    "Result Qualifier": "=",
    "Reported Value": 347
  },
  {
    "Molecule": "CCOP(=O)(OCC)[C@H](Nc1ccc(Br)cc1)c1ccccc1O",
    "Target System": "Tyrosine-protein phosphatase non-receptor type 9 (Homo sapiens)",
    "Readout Units": "µM",
    "Result Qualifier": "=",
    "Reported Value": 173
  },
  {
    "Molecule": "CCOP(=O)(O)C(N[C@@H](Cc1cnc[nH]1)C(=O)O)c1ccccc1O (some centres not stated)",
    "Target System": "Tyrosine-protein phosphatase non-receptor type 9 (Homo sapiens)",
    "Readout Units": "µM",
    "Result Qualifier": ">",
    "Reported Value": 10000
  },
  {
    "Molecule": "CCOP(=O)(O)C(NCCNC(c1ccccc1O)P(=O)(O)OCC)c1ccccc1O (configuration not stated)",
    "Target System": "Tyrosine-protein phosphatase non-receptor type 9 (Homo sapiens)",
    "Readout Units": "µM",
    "Result Qualifier": ">",
    "Reported Value": 10000
  },
  {
    "Molecule": "CCOP(=O)(O)C(N[C@H](C(=O)O)[C@@H](C)O)c1ccccc1O (some centres not stated)",
    "Target System": "Tyrosine-protein phosphatase non-receptor type 9 (Homo sapiens)",
    "Readout Units": "µM",
    "Result Qualifier": ">",
    "Reported Value": 10000
  },
  {
    "Molecule": "O=P(O)(O)[C@H](Nc1ccc(O)cc1)c1ccccc1O",
    "Target System": "Tyrosine-protein phosphatase non-receptor type 9 (Homo sapiens)",
    "Readout Units": "µM",
    "Result Qualifier": "=",
    "Reported Value": 160
  },
  {
    "Molecule": "CCOP(=O)(O)C(N[C@@H](CO)C(=O)O)c1ccccc1O (some centres not stated)",
    "Target System": "Tyrosine-protein phosphatase non-receptor type 9 (Homo sapiens)",
    "Readout Units": "µM",
    "Result Qualifier": "=",
    "Reported Value": 68.6
  },
  {
    "Molecule": "CCOP(=O)(O)C(N[C@@H](Cc1ccc(O)cc1)C(=O)O)c1ccccc1O (some centres not stated)",
    "Target System": "Tyrosine-protein phosphatase non-receptor type 9 (Homo sapiens)",
    "Readout Units": "µM",
    "Result Qualifier": ">",
    "Reported Value": 10000
  },
  {
    "Molecule": "CCOP(=O)(O)C(N[C@@H](CS)C(=O)O)c1ccccc1O (some centres not stated)",
    "Target System": "Tyrosine-protein phosphatase non-receptor type 9 (Homo sapiens)",
    "Readout Units": "µM",
    "Result Qualifier": ">",
    "Reported Value": 10000
  },
  {
    "Molecule": "CCOP(=O)(O)C(NCCCNC(c1ccccc1O)P(=O)(O)OCC)c1ccccc1O (configuration not stated)",
    "Target System": "Tyrosine-protein phosphatase non-receptor type 9 (Homo sapiens)",
    "Readout Units": "µM",
    "Result Qualifier": ">",
    "Reported Value": 10000
  },
  {
    "Molecule": "CCOP(=O)(O)C(N[C@@H](Cc1ccccc1)C(=O)O)c1ccccc1O (some centres not stated)",
    "Target System": "Tyrosine-protein phosphatase non-receptor type 9 (Homo sapiens)",
    "Readout Units": "µM",
    "Result Qualifier": ">",
    "Reported Value": 10000
  },
  {
    "Molecule": "CCOP(=O)(OCC)[C@H](Nc1ccccc1Cl)c1ccccc1O",
    "Target System": "Tyrosine-protein phosphatase non-receptor type 9 (Homo sapiens)",
    "Readout Units": "µM",
    "Result Qualifier": "=",
    "Reported Value": 146
  }
]

Each recorded value in this set is attributed to ChEMBL document CHEMBL1944565.
